- ASSAY EXPLANATION: growth inhibition of non-replicating M. tuberculosis (AID 488890);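 further: plate controls were DMSO cells for no effect and high antibiotic wells for full effect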
- MEASUREMENT CONTEXT: Mycobacterium tuberculosis non-replicating, at 25 µM, stronger effect = higher value
The whole screen tested about 320,000 compounds, of which about 1,300 (0.41%) were called active. Inconclusive results (about 3%) are left out. The list is a sample of the results. Entries with a potency or affinity are not part of this list.
Use 20% as the dividing line for inhibition, with the line itself on the y side and lower values as n.

INSERT INTO measurements (smi, category) VALUES
  ('COc1ccc(CN2CCC(n3nccc3NC(=O)C3CC3)CC2)c(OC)c1OC', 'n'),
  ('CCc1cc(CC)c(/C=N/NC(N)=O)c(CC)c1', 'n'),
  ('Oc1cc2c(cc1CN1CCN(c3ncccn3)CC1)OCO2', 'n'),
  ('Cc1cccc(OCCn2cccc2/C=C2/C(=O)NC(=O)N(Cc3ccco3)C2=O)c1', 'y');

Now examine the next entry.
Tell me whether inhibition is at least 20% here: CCOC(=O)Nc1ccc2c(c1)N(C(=O)CN)c1ccccc1CC2
y

====

- ASSAY EXPLANATION: growth inhibition of non-replicating M. tuberculosis (AID 488890)
- MEASUREMENT CONTEXT: Mycobacterium tuberculosis non-replicating, at 25 µM, stronger effect = higher value
Screen size: about 320,000 compounds; about 1,300 (0.41%) were called active. Inconclusive results (about 3%) are left out. A selection follows. Measured potencies and affinities stand elsewhere.
Listed molecules paired with reported inhibition
Form entry: value (%) — number only.

INSERT INTO assay_data (molecule, observed) VALUES
  ('O=C(COc1ccc(F)cc1Br)NCc1ccccn1', 28.1),
  ('Cc1csc(N2CCCC2c2nc3cc(Cl)c(N4CCCCC4)cc3n2CCOCCO)n1 (centres undefined)', 5.44),
  ('COc1ccc(-c2cc(C(F)F)n3ncc(C(=O)Nc4cnn(Cc5ccccc5)c4)c3n2)cc1', -6.39),
  ('O=C(O)c1ccc2c(c1)C(=O)N(NC(=O)c1ccccc1)C2=O', -12.7),
  ('CC(C)OC(=O)CCCN1C(=O)c2ccc(N)cc2C1=O', -10.2),
  ('COc1cccc(OC)c1C(=O)Nc1ccccc1C(=O)N1CCCCCC1', 1.4);

Look up and state reported inhibition for O=C(CCc1nnc2ccc(NCc3ccco3)nn12)N1CCN(c2ccccc2F)CC1
28.5

Look up and state reported inhibition for CCS(=O)(=O)c1nc2ccccc2n1Cc1ccccc1Cl
17.3

Look up and state reported inhibition for C=C[C@]1(C)C=C2CC[C@H]3[C@@](C)(CCC[C@@]3(C)C(=O)O)[C@@H]2CC1
43.7

Look up and state reported inhibition for CCOC(=O)c1c(C)n(OC)c2ccc3c(no[n+]3[O-])c12
-0.23

Look up and state reported inhibition for C/C(N)=C(/C#N)C(=O)CSc1nnc(C)n1-c1ccccc1
-16.6

Look up and state reported inhibition for Cc1nc(C(=O)N(C)C)nn1-c1ccc(Cl)cc1Cl
-3

Look up and state reported inhibition for Cc1nn(C(=O)CCC(=O)NCc2ccc(OC(C)C)cc2)c2ccccc12
-4.46

Look up and state reported inhibition for C=C/C(C)=C/CC1C(=C)CCC2C(C)(C(=O)O)CCCC12C (centres undefined)
0.01

Look up and state reported inhibition for CC(C)(O)C(=O)NNC(=S)NCc1ccco1
-2.82

Look up and state reported inhibition for CCC(=O)Nc1nc2ccccc2n1CCN(CC)CC
12.6

Look up and state reported inhibition for CC(C)(C)NC(=S)NCc1ccco1
-18.9

Look up and state reported inhibition for CCn1c(NCc2ccccc2Cl)nc2ccccc21
26.2

Look up and state reported inhibition for CC(Oc1ccc(S(=O)(=O)N2CCCC2)cc1[N+](=O)[O-])C(=O)NC1(C#N)CCCCC1 (centres undefined)
9.55

====

- ASSAY EXPLANATION: growth inhibition of non-replicating M. tuberculosis (AID 488890);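 further: plate controls were DMSO cells for no effect and high antibiotic wells for full effect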
- MEASUREMENT CONTEXT: Mycobacterium tuberculosis non-replicating, at 25 µM, stronger effect = higher value
The whole screen tested about 320,000 compounds, of which about 1,300 (0.41%) were called active. Another 3% or so got no clear call; they are omitted. Only a sample is shown. Measured potencies and affinities stand elsewhere.
READOUT TYPE: inhibition (%)
Form entry: value (%) — number only.

These solved cases illustrate the format of a correct answer.
INSERT INTO results (compound, readout_type, observed) VALUES
  ('O=S(=O)(c1cc(Cl)ccc1Cl)N1CCN(c2ccccn2)CC1', 'inhibition', 6.68),
  ('Cc1cc(C)c(C)c(C(=O)COC(=O)CNC(=O)CNC(=O)c2ccco2)c1C', 'inhibition', 6.12),
  ('O=c1c2cc(F)ccc2sn1-c1ccccc1', 'inhibition', 20.9),
  ('O=C1c2ccccc2NC(c2ccco2)N1NS(=O)(=O)c1ccccc1 (configuration not stated)', 'inhibition', 1.96),
  ('Cc1ccccc1C(=O)NCC(=O)OCCCOC(=O)CNC(=O)c1ccccc1C', 'inhibition', -9.69);

Look up and state reported inhibition for COc1ccc(-c2nnc(NC(=O)Cc3ccccc3)s2)c(OC)c1
6.43

Look up and state reported inhibition for CCOc1cc(NC(=O)c2ccccc2OC)c(OCC)cc1NC(=O)c1ccccc1
8.11

Look up and state reported inhibition for Cc1ccc(-c2cc(-c3ccc(F)cc3)n[nH]2)c(O)c1
-3.72

Look up and state reported inhibition for COC(=O)C1=C(C)OC(N)=C(C#N)C1c1ccc(OC)c(CSc2ccccn2)c1 (configuration not stated)
10.8

Look up and state reported inhibition for O=S(=O)(CCN1CCN(c2ccccn2)CC1)c1ccc(F)cc1
3.07

Look up and state reported inhibition for Cc1ccc(C)c(-n2sc3ccc(F)cc3c2=O)c1
-21.9

Look up and state reported inhibition for C=CCC[C@@H](Cc1ccc(F)cc1)C(=O)OC[C@@H](Cc1c[nH]c2ccccc12)NC(=O)[C@H](CC=C)CC(=O)N[C@H](CO)Cc1ccccc1
-0.91

Look up and state reported inhibition for O=[N+]([O-])c1ccc(O)c(/C=N\N=C2c3ccccc3-c3ccccc32)c1
72.8

====

- ASSAY EXPLANATION: growth inhibition of non-replicating M. tuberculosis (AID 488890);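 further: plate controls were DMSO cells for no effect and high antibiotic wells for full effect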
- MEASUREMENT CONTEXT: Mycobacterium tuberculosis non-replicating, at 25 µM, stronger effect = higher value
The campaign covered roughly 320,000 compounds. About 1,300 (0.41%) were called active. Roughly 3% stayed inconclusive and do not appear here. Only a sample is shown. Measured potencies and affinities stand elsewhere.
Use 20% as the dividing line for inhibition, with the line itself on the met side and lower values as not met.

Reference set, count: 10
INSERT INTO results (molecule, category) VALUES
  ('COc1ccc(CC(=O)NNC(=O)c2cnccn2)cc1', 'not met'),
  ('CC(=O)Oc1ccc(/C=C2/C(=O)N(c3ccccc3)N=C2C)cc1', 'met'),
  ('COc1ccc(CC(=O)NNC(=O)COc2ccc(Br)cc2C)cc1OC', 'not met'),
  ('Cc1cc(NC(=O)c2ccc(Cn3cc([N+](=O)[O-])cn3)o2)no1', 'not met'),
  ('COc1cccc(NC(=O)CC(=O)c2ccc([N+](=O)[O-])cc2)c1', 'met'),
  ('CC(CNC(=O)CN1C(=O)C(=O)N(C2CCCC2)C1=O)c1ccccc1 (stereo not drawn)', 'met'),
  ('O=C(COC(=O)/C=C/c1ccco1)NCc1ccc(Cl)cc1', 'met'),
  ('O=C(CCN1C(=O)S/C(=C\c2ccc(F)cc2)C1=O)Nc1ccc(O)cc1C(=O)O', 'met'),
  ('COc1ccccc1OCC(=O)NNC(=O)c1cnccn1', 'not met'),
  ('O=C(CCN1C(=O)S/C(=C/c2ccc(F)cc2)C1=O)Nc1ccc(O)c(C(=O)O)c1', 'not met');

Tell me whether inhibition is at least 20% here: COc1ccc(S(=O)(=O)CCC(=O)NCCc2cccc(C)c2)cc1
not met

Tell me whether inhibition is at least 20% here: COC(=O)c1sc(NC(=O)c2ccco2)c(C#N)c1C
not met

Tell me whether inhibition is at least 20% here: COc1cccc(NC(=O)CNC(=O)c2ccc([N+](=O)[O-])cc2)c1
not met

Tell me whether inhibition is at least 20% here: C=CCC(C=C)S(=O)(=O)c1ccc(C)cc1 (stereo not drawn)
not met

Tell me whether inhibition is at least 20% here: CCc1ccc(OCC(=O)NCCN(C)C)c(Br)c1
not met

====

- ASSAY EXPLANATION: growth inhibition of non-replicating M. tuberculosis (AID 488890);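 further: plate controls were DMSO cells for no effect and high antibiotic wells for full effect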
- MEASUREMENT CONTEXT: Mycobacterium tuberculosis non-replicating, at 25 µM, stronger effect = higher value
The campaign covered roughly 320,000 compounds. About 1,300 (0.41%) were called active. Roughly 3% stayed inconclusive and do not appear here. These entries were drawn from the full list. Entries with a potency or affinity are not part of this list.
Listed compounds paired with reported inhibition
Form entry: value (%) — number only.

These solved cases illustrate the format of a correct answer.
INSERT INTO measurements (compound, readout_unit, observed) VALUES
  ('CCNc1nc(NCC)n2c(SCc3nc4ccccc4c(=O)[nH]3)nnc2n1', '%', 48.6),
  ('CN(C)S(=O)(=O)c1ccc(NC(=O)COC(=O)C2CC3CCCC(C2)C3=O)cc1 (stereo unspecified)', '%', 14.8),
  ('O=C(NC(=S)NCC1CCCO1)c1ccc(Br)o1 (stereo unspecified)', '%', -17.8),
  ('COc1cc(/C=N/NC(=O)c2ccc(N)cc2)ccc1OC(=O)c1cccc(C)c1', '%', 35.7),
  ('Cc1nc2nc3c(c(=O)n2[nH]1)CCC3', '%', -0.78);

Look up and state reported inhibition for COc1ccc(/C=C2\N=C(SC)SC2=O)cc1OC
76.1

Look up and state reported inhibition for CC1=C/C(=C\c2ccc3c(c2)OCO3)C(=O)S1
31.9

Look up and state reported inhibition for CCc1ccc(C(=O)NNc2cc(Cl)cc(Cl)c2)cc1
67.2

Look up and state reported inhibition for COc1ccc(NC(=O)NNC(=O)c2ccc3ccccc3c2)cc1OC
-2.52

Look up and state reported inhibition for CN1CCN(c2ccc(CNC(=O)c3ccc4c(c3)OCCO4)cc2)CC1
-0.49

Look up and state reported inhibition for Cc1cccc(C)c1OCC(=O)NCC1COc2ccccc2O1 (stereo unspecified)
-21
